This section presents compounds with their documented T/C values.
# Test system: CD2F1 mice, L1210 leukemia ip, survival T/C
# measurement_protocol: NCI In Vivo Anticancer Drug Screen. Data for tumor model L1210 Leukemia (intraperitoneal) in CD2F1 (CDF1) mice
# study_conditions: endpoint: mean survival time; dose: 12.5 mg/kg/injection; schedule: Q01DX009 (ip); vehicle: other; higher = longer survival
Toxic doses and inconclusive results are not listed.

Some compounds with known T/C results, for comparison:
compound	test_target	T/C
CC(C)(C)C1C=Nn2c(=O)n(-c3ccccc3)c(=O)n21 (stereo not given)	CD2F1 mice, L1210 leukemia ip, survival T/C	100 % of control
[O-]c1cc2c3c(c1)c1cc4c(cc1c[n+]3C=C2)OCO4	CD2F1 mice, L1210 leukemia ip, survival T/C	110 % of control
COc1ccccc1NC(=O)NC1C(OC(C)=O)OC(COC(C)=O)C(OC(C)=O)C1OC(C)=O (stereo not given)	CD2F1 mice, L1210 leukemia ip, survival T/C	93 % of control

// query Using the record for CCCCCCCC1SC(=S)NC1=O (stereo not given) , report its T/C.
// result 95 % of control

// query And Cc1ccnc(N)c1N ?
// result 91 % of control
